Where do the numbers come from? From ChEMBL document CHEMBL3351291.

- Assay method text: Inhibition of Candida albicans isocitrate lyase using isocitrate substrate
- Settings: read-out: IC50
Attribute measured: pIC50
Worth noting: pIC50 values are minus log10 of concentrations stated in mol/L.

Qu. GET /values?readout=pIC50&item= CO[C@@H](C[C@@H](C)[C@@H](O)/C=C/C=C/CNC(=O)C(C)(C)[C@H](O)\C(C)=C/C=C/C=C/C(C)=C(\C)[N+](=O)[O-])[C@]1(O)[C@@H](C)C(=O)N(C)[C@]12C(=O)O[C@@H]2C
Ans. 3.92

Qu. GET /values?readout=pIC50&item= CO[C@@H](C[C@@H](C)[C@@H](O)/C=C/C=C/CNC(=O)C(C)(C)[C@H](O)/C(C)=C/C=C/C=C/C(C)=C(\C)[N+](=O)[O-])[C@]1(O)[C@@H](C)C(=O)N(C)[C@@]12COC2=O
Ans. 4.40

Qu. GET /values?readout=pIC50&item= COC(CC(C)C(O)/C=C/C=C/CNC(=O)C(C)(C)C(O)\C(C)=C/C=C\C=C\C(C)=C(/C)[N+](=O)[O-])C1(O)C(C)C(=O)N(C)C12C(=O)OC2C (centres undefined)
Ans. 4.38

Qu. GET /values?readout=pIC50&item= CO[C@@H](C[C@@H](C)[C@@H](O)/C=C/C=C/CNC(=O)C(C)(C)[C@H](O)/C(C)=C/C=C/C=C/C(C)=C(\C)[N+](=O)[O-])[C@]1(O)[C@@H](C)C(=O)N(C)[C@]12C(=O)O[C@@H]2C
Ans. 4.30
